# tested.system: BRD4 (BDII_E352-M457) (Homo sapiens)
# Construct: protocol
# procedure.text: TR-FRET bromodomain binding assay, BRD4 second bromodomain
pKi: −log10 of the molar value.
Label Y when pKi >= 8; otherwise N.

[[record]]
structure_smiles_string = "Cn1cc2c3c(c[nH]c(=O)c31)CN(c1ccc(F)cc1)c1ccc(NC(=O)Cn3ccc(-c4ccccc4F)n3)cc1-2"
category_label = "N"

[[record]]
structure_smiles_string = "Cn1cc2c3c(c[nH]c(=O)c31)CN(c1ccc(F)cc1)c1ccc(NC(=O)Cc3ccccc3)cc1-2"
category_label = "N"

[[record]]
structure_smiles_string = "Cn1cc2c3c(c[nH]c(=O)c31)CN(c1ccc(F)cc1)c1ccc(NC(=O)Cc3cc(Cl)ccc3Cl)cc1-2"
category_label = "N"

[[record]]
structure_smiles_string = "Cn1cc2c3c(c[nH]c(=O)c31)CN(c1ccc(F)cc1)c1ccc(NC(=O)Cc3cc(F)ccc3[N+](=O)[O-])cc1-2"
category_label = "N"

[[record]]
structure_smiles_string = "Cn1cc2c3c(c[nH]c(=O)c31)CN(c1ccc(F)cc1)c1ccc(CS(C)(=O)=O)cc1-2"
category_label = "Y"

[[record]]
structure_smiles_string = "Cn1cc2c3c(c[nH]c(=O)c31)CN(c1ccc(F)cc1)c1ncc(NC(=O)Cc3ccc4c(c3)CCCO4)cc1-2"
category_label = "Y"


----------
# tested.system: BRD4 (BDI_K57-E168) (Homo sapiens)
# Construct: BD1: amino acids K57-E168
# procedure.text: TR-FRET bromodomain binding assay, BRD4 first bromodomain
# condition.info: His-tagged BD1, 100 nM Alexa647 probe; assay protocol D or F as given per row in c1; Ki calculated from IC50
Measured Ki of individual entries
endpoint: Ki (nM)

[[record]]
molecule = "Cn1cc2c3c(c[nH]c(=O)c31)CN(c1ccc(F)cc1)c1ccc(NCCCn3cccn3)cc1-2 [Example 39]"
tested_system = "BRD4 (BDI_K57-E168) (Homo sapiens)"
endpoint_result = 1.94

[[record]]
molecule = "CN1CCN(CCC(=O)Nc2ccc3c(c2)-c2cn(C)c4c(=O)[nH]cc(c24)CN3c2ccc(F)cc2)CC1 [Example 47]"
tested_system = "BRD4 (BDI_K57-E168) (Homo sapiens)"
endpoint_result = 1.14

[[record]]
molecule = "Cn1cc(CC(=O)Nc2cnc3c(c2)-c2cn(C)c4c(=O)[nH]cc(c24)CN3c2ccc(F)cc2)cn1 [Example 22]"
tested_system = "BRD4 (BDI_K57-E168) (Homo sapiens)"
endpoint_result = 1.29


----------
# tested.system: BRD4 (BDII_E352-M457) (Homo sapiens, UniProt O60885)
# Construct: protocol
# procedure.text: TR-FRET bromodomain binding assay, BRD4 second bromodomain
Response field label: string, one of true (1) (Ki strictly below 0.05 µM) or false (0).

[[record]]
compound = "Cn1cc2c3c(c[nH]c(=O)c31)CN(c1ccc(F)cc1)c1ccc(NC(=O)Nc3cccc(Oc4ccccc4)c3)cc1-2 [Example 44]"
tested_system = "BRD4 (BDII_E352-M457) (Homo sapiens, UniProt O60885)"
category_label = "false (0)"

[[record]]
compound = "CC(=O)N1CCC(N2Cc3c[nH]c(=O)c4c3c(cn4C)-c3cc(NC(=O)Cc4cnc(C)s4)ccc32)CC1 [Example 75]"
tested_system = "BRD4 (BDII_E352-M457) (Homo sapiens, UniProt O60885)"
category_label = "false (0)"

[[record]]
compound = "COCCC1c2c[nH]c(=O)c3c2c(cn3C)-c2cc(CS(C)(=O)=O)ccc2N1c1ccc(F)cc1 (stereo not drawn) [Example 8]"
tested_system = "BRD4 (BDII_E352-M457) (Homo sapiens, UniProt O60885)"
category_label = "true (1)"

[[record]]
compound = "CCn1ccc(CNc2ccc3c(c2)-c2cn(C)c4c(=O)[nH]cc(c24)CN3c2ccc(F)cc2)n1 [Example 37]"
tested_system = "BRD4 (BDII_E352-M457) (Homo sapiens, UniProt O60885)"
category_label = "true (1)"

[[record]]
compound = "Cn1cc2c3c(c[nH]c(=O)c31)C(CC1CCOCC1)N(c1ccc(F)cc1)c1ccc(CS(C)(=O)=O)cc1-2 (stereo not drawn) [Example 10]"
tested_system = "BRD4 (BDII_E352-M457) (Homo sapiens, UniProt O60885)"
category_label = "false (0)"

[[record]]
compound = "Cn1cc2c3c(c[nH]c(=O)c31)CN(c1ccc(F)cc1)c1ccc(C(=O)NCc3cc(F)ccc3F)cc1-2 [Example 64]"
tested_system = "BRD4 (BDII_E352-M457) (Homo sapiens, UniProt O60885)"
category_label = "true (1)"

